Target: NKCC2 (Homo sapiens, UniProt Q13621)
Construct: expressed in transfected cells; host or cells: HEK293
Sequence (Q13621 whole entry, species assumed): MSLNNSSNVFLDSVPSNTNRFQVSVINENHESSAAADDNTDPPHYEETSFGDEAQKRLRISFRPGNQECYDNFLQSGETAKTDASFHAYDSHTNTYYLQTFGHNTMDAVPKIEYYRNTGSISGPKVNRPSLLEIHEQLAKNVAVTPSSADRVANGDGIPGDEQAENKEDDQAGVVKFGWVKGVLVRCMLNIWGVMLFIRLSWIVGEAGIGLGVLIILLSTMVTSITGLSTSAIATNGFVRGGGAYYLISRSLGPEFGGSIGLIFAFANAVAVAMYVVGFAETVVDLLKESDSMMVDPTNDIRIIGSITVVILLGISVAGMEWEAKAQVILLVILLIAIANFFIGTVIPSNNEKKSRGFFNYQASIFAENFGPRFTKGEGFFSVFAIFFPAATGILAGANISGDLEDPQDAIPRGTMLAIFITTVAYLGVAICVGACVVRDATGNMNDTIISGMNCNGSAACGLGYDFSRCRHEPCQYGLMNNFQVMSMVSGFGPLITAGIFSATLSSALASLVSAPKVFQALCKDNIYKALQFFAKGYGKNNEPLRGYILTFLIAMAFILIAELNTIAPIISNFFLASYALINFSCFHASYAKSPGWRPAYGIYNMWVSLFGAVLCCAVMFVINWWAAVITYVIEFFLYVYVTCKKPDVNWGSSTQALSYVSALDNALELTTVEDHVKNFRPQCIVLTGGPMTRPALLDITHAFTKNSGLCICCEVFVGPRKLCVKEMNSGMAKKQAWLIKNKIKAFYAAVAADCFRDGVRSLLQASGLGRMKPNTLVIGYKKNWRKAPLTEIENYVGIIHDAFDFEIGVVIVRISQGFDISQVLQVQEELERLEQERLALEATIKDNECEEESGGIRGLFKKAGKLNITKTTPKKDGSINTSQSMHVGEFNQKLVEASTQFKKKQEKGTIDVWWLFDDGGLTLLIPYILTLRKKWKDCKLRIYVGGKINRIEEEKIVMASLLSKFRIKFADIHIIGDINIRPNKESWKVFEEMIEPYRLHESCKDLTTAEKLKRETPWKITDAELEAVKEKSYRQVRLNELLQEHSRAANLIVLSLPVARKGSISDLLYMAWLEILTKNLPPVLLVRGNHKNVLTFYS
Test: Thallium-based assay in NKCC2-transfected HEK293 cells
Format: cell-based
Conditions: 10 μM; NKCC2-transfected HEK293; Table 2
From the text: The Thallium-based assay is a standard assay used to measure activity of potassium transporters, like NKCC2 which is a sodium potassium and chloride co-transporter. The assay consists on the monitoring of the cells upon the application of thallium (which mimic K^+) and consequently NaCl, which entering into cells by NKCC2, activated by the presence of the chloride ions, binds the fluorescent dye, thus determining a fluorescence increase. […]
Each record here notes measured inhibition at 10 µM.
test-readout: inhibition at 10 µM (%)

INSERT INTO measurements (molecule, tested_on, recorded_value) VALUES
  ('CCCCNc1ccc(C(=O)O)cc1S(N)(=O)=O [Compound 2.6, 4-(butylamino)-3-sulfamoyl-benzoic acid]', 'NKCC2 (Homo sapiens, UniProt Q13621)', 0),
  ('CCCCCCNc1ccc(C(=O)O)cc1S(=O)(=O)NC [Compound 3.7]', 'NKCC2 (Homo sapiens, UniProt Q13621)', 8),
  ('CCCCCCNc1ccc([N+](=O)[O-])cc1S(=O)(=O)N(C)C [Compound 1.15]', 'NKCC2 (Homo sapiens, UniProt Q13621)', 0);
